The origin of these recorded values is patent US10421765B2.

System: ATR-driven phosphorylation of Chk1 kinase at Serine 345 in HT-29 colorectal adenocarcinoma cells
Test: pCHK1 cellular assay (CHK1 p-Ser345 AlphaScreen SureFire)
Format: cell-based
Settings: Homo sapiens, HT-29, HT-29 cells, 4-nitroquinoline N-oxide 12 uM; read-out: Cell IC50 (pCHK1 IC50 values)
MEASURED ENDPOINT: IC50
Form field: result (number plus unit)

COMPOUND: CS(=O)(=O)N1CCC(c2ncnc3c2CN(c2ccnc4[nH]ccc24)[C@@H](CF)C3)CC1 [Example 52a]
IC50: 10000 nM

COMPOUND: C[C@@H]1Cc2ncnc(C3CCC(NS(C)(=O)=O)CC3)c2CN1c1cc(Cl)nc2[nH]ccc12 (stereo partly shown) [Example 40]
IC50: 24 nM

COMPOUND: CCC(=O)NC1[C@@H]2CC[C@H]1CN(c1ncnc3c1CN(c1cc(Cl)nc4[nH]ccc14)[C@H](C)C3)C2 (stereo partly shown) [Example 27]
IC50: 38 nM

Please look at the following compound next.
Query: Return reported IC50; argument: C[C@@H]1Cc2ncnc(N3CC(C#N)C3)c2CN1c1cc(Cl)nc2[nH]ccc12 [Example 79]
Reply: 14 nM

====

System: ATR-driven phosphorylation of Chk1 kinase at Serine 345 in HT-29 colorectal adenocarcinoma cells
Assay: pCHK1 cellular assay (CHK1 p-Ser345 AlphaScreen SureFire)
Format: cell-based
Details: Homo sapiens, HT-29, HT-29 cells, 4-nitroquinoline N-oxide 12 uM; read-out: Cell IC50 (pCHK1 IC50 values)
Experimental: Inhibitors of ATR kinase are effective at inhibiting the ATR-driven phosphorylation of the downstream target Chk1 kinase at Serine 345, following the addition of 4-nitroquinoline N-oxide, a chemical used to induce DNA damage. Cellular IC50 for the inhibitors of ATR described herein were measured in HT-29 colorectal adenocarcinoma cells. […]
MEASURED ENDPOINT: pIC50
On this scale, pIC50 is minus log10 of a concentration expressed in M (mol/L).

Answered cases to consult:
COMPOUND: C[C@@H]1Cc2ncnc(C3CCN(S(C)(=O)=O)CC3)c2CN1c1ncnc2[nH]ccc12
MEASURED ENDPOINT: pIC50
REPORTED MEASUREMENT: 6.21

COMPOUND: C[C@@H]1Cc2ncnc(N3CCN(S(C)(=O)=O)C(C)(C)C3)c2CN1c1cc(Cl)nc2[nH]ccc12
MEASURED ENDPOINT: pIC50
REPORTED MEASUREMENT: 7.24

COMPOUND: C[C@@H]1Cc2ncnc(C3CCN(S(C)(=O)=O)CC3)c2CN1c1cc(OC2CCC2)nc2[nH]ccc12
MEASURED ENDPOINT: pIC50
REPORTED MEASUREMENT: 8.05

Query: Return reported pIC50; argument: CS(=O)(=O)N1CCC(c2ncnc3c2CN(c2ccnc4[nH]ccc24)[C@@H](C(F)F)C3)CC1 [Example 53a]
Reply: 5.00

====

System: ATR-driven phosphorylation of Chk1 kinase at Serine 345 in HT-29 colorectal adenocarcinoma cells
Test: pCHK1 cellular assay (CHK1 p-Ser345 AlphaScreen SureFire)
Assay type: cell-based
Conditions: Homo sapiens, HT-29, HT-29 cells, 4-nitroquinoline N-oxide 12 uM; read-out: Cell IC50 (pCHK1 IC50 values)
Listed next: entries and their corresponding pIC50.
On this scale, pIC50 is minus log10 of a concentration expressed in M (mol/L).

Answered cases to consult:
MOLECULE: COc1cc(N2Cc3c(ncnc3C3CCN(S(C)(=O)=O)CC3)C[C@H]2C)c2cc[nH]c2n1
pIC50: 7.74
//
MOLECULE: C[C@@H]1Cc2ncnc(N3CCC(O)(C4CC4)CC3)c2CN1c1cc(Cl)nc2[nH]ccc12
pIC50: 7.47
//
MOLECULE: C[C@@H]1Cc2ncnc(N3CCC(C#N)CC3)c2CN1c1ccnc2[nH]ccc12
pIC50: 7.10

Please look at the following compound next.
Query: Return reported pIC50; argument: "C[C@@H]1Cc2ncnc(N3CCN(S(C)(=O)=O)CC3)c2CN1c1cc(Cl)nc2[nH]ccc12"
Reply: 7.01

====

Test system: ATR-driven phosphorylation of Chk1 kinase at Serine 345 in HT-29 colorectal adenocarcinoma cells
Experiment: pCHK1 cellular assay (CHK1 p-Ser345 AlphaScreen SureFire)
Assay type: cell-based
Conditions: Homo sapiens, HT-29, HT-29 cells, 4-nitroquinoline N-oxide 12 uM; read-out: Cell IC50 (pCHK1 IC50 values)
MEASURED ENDPOINT: IC50
Form field: result (number plus unit)

COMPOUND: CS(=O)(=O)N1CCC(c2ncnc3c2CN(c2ccnc4[nH]ccc24)C(CF)C3)CC1 (stereo not shown)
IC50: 586 nM

COMPOUND: C[C@@H]1Cc2ncnc(N3C[C@H]4CC[C@@H](C3)[C@H]4NS(=O)(=O)C3CC3)c2CN1c1cc(Cl)nc2[nH]ccc12
IC50: 50 nM

COMPOUND: CCC1(O)CCN(c2ncnc3c2CN(c2cc(Cl)nc4[nH]ccc24)[C@H](C)C3)CC1
IC50: 21 nM

Please look at the following compound next.
Query: Return reported IC50; argument: C[C@@H]1Cc2ncnc(N3CCC(S(C)(=N)=O)CC3)c2CN1c1cc(Cl)nc2[nH]ccc12 (stereo partly shown)
Reply: 218 nM

====

Listed next: entries and their corresponding pIC50.
Biological target: ATR/ATRIP complex (Homo sapiens (Human), UniProt Q13535)
Sequence (Q13535 whole entry): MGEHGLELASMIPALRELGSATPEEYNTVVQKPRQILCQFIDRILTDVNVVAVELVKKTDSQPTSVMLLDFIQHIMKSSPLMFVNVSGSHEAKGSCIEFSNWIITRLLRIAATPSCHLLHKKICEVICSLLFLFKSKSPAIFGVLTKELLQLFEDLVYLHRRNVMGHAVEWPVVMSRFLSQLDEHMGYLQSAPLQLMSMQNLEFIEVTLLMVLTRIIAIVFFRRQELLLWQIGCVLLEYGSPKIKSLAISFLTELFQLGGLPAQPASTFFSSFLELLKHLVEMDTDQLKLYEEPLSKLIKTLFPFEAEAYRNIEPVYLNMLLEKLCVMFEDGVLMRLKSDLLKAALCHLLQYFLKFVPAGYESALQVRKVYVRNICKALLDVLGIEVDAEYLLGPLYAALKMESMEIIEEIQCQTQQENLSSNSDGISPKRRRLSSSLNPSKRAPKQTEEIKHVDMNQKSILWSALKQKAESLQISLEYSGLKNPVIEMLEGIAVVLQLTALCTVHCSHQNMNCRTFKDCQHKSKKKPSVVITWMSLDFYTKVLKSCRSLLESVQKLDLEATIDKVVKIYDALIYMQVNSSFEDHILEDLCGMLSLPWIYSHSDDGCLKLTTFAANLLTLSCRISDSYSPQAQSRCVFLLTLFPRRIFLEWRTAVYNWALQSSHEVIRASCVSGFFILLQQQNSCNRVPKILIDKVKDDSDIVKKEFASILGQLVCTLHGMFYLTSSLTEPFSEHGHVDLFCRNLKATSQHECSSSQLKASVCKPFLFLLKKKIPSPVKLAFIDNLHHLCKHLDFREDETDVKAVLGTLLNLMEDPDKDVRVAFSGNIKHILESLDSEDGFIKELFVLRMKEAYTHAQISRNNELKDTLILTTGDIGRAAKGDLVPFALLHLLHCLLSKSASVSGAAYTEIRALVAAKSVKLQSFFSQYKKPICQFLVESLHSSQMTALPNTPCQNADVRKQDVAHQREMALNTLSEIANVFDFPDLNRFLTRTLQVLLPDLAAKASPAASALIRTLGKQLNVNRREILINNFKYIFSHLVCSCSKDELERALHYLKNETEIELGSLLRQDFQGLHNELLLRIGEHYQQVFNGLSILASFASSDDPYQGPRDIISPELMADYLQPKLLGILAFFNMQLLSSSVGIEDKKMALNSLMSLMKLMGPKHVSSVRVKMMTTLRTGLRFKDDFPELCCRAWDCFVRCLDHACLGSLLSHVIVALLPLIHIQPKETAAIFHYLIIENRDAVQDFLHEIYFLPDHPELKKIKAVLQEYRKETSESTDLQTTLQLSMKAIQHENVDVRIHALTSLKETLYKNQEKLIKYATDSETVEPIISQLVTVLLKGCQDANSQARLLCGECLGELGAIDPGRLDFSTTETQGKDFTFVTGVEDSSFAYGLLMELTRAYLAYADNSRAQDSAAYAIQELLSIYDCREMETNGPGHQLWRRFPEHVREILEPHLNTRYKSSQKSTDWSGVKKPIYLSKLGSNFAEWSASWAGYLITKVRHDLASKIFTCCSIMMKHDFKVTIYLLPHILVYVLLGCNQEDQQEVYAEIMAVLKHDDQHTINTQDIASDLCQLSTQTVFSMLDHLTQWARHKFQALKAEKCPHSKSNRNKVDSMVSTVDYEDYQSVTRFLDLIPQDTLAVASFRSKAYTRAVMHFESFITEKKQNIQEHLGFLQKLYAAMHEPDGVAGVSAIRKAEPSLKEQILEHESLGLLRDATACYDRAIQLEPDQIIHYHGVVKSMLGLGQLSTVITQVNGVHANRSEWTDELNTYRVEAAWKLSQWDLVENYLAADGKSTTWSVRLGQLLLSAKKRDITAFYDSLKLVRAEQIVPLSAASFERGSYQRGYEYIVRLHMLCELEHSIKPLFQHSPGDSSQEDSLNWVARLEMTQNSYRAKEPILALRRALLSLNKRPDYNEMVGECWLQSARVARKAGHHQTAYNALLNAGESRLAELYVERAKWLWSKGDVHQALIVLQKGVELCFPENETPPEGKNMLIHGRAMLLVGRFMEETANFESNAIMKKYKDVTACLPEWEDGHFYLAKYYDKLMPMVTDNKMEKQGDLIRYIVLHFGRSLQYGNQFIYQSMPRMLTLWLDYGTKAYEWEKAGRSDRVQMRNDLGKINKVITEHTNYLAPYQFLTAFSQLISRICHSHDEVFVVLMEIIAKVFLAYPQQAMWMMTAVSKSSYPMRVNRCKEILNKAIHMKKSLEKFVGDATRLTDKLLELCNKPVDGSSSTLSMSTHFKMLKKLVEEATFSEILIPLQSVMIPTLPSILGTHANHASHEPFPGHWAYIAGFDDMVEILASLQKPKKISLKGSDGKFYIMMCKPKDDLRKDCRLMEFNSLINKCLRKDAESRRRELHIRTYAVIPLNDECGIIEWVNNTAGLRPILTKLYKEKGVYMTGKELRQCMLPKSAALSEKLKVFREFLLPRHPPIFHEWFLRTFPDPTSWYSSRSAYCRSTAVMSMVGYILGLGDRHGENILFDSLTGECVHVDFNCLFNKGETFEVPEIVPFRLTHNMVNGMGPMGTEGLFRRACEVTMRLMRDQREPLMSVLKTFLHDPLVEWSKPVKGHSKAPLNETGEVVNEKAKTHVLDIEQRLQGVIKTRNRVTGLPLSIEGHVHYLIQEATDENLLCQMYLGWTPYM
Sequence (Q8WXE1 whole entry partner): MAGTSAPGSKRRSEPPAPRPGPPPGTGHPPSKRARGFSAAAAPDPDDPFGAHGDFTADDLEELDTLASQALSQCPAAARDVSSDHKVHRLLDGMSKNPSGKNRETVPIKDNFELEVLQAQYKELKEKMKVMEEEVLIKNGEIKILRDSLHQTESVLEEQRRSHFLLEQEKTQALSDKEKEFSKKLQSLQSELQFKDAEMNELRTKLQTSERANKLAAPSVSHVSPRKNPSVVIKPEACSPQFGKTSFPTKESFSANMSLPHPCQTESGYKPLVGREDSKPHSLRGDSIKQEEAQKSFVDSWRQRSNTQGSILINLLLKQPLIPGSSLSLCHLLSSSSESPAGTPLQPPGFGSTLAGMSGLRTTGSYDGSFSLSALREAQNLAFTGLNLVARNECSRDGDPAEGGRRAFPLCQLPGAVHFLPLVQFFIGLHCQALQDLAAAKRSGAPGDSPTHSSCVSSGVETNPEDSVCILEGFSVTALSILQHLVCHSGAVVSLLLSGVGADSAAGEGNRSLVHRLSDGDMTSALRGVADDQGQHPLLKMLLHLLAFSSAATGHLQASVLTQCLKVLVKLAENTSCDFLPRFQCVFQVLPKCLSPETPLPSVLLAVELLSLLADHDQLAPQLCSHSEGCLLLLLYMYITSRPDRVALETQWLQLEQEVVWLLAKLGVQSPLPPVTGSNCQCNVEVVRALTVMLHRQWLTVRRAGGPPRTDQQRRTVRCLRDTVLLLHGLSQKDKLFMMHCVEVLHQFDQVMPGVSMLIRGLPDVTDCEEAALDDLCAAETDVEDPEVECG
Experiment: ATR/ATRIP enzymatic assay (Caliper-based)
Format: biochemical
Settings: FAM-labeled RAD17 peptide, ATP; read-out: ATR/ATRIP Enzyme IC50
Method: Human full-length FLAG-TEV-ATR and His6-ATRIP were co-expressed in HEK293 cells. […] The ability of new chemical matter to inhibit the ATR catalytic activity in this ATR/ATRIP complex was assessed using a Caliper-based assay. […] IC50 values were calculated using the following equation in XLFit: Y=Bottom+(Top−Bottom)/1+(IC50/X)^HillSlope).
On this scale, pIC50 is minus log10 of a concentration expressed in M (mol/L).

Answered cases to consult:
COMPOUND: C[C@@H]1Cc2ncnc([C@H]3CCCN(S(C)(=O)=O)C3)c2CN1c1ccnc2[nH]ccc12 [Example 50b]
REPORTED MEASUREMENT: 5.32
//
COMPOUND: CC(C)Oc1cc(N2Cc3c(ncnc3C3CCN(S(C)(=O)=O)CC3)C[C@H]2C)c2cc[nH]c2n1
REPORTED MEASUREMENT: 7.06
//
COMPOUND: C[C@@H]1Cc2ncnc(N3CCC(C(C)(C)O)CC3)c2CN1c1cc(Cl)nc2[nH]ccc12
REPORTED MEASUREMENT: 6.48
//
COMPOUND: CS(=O)(=O)N1CCC(c2ncnc3c2CN(c2ccnc4[nH]ccc24)C(CF)C3)CC1 (stereo not drawn)
REPORTED MEASUREMENT: 5.89
//
COMPOUND: C[C@@H]1Cc2ncnc(N3CCC(O)(C4CC4)CC3)c2CN1c1cc(Cl)nc2[nH]ccc12
REPORTED MEASUREMENT: 6.61

Please look at the following compound next.
Query: Return reported pIC50; argument: "COC1CCN(c2ncnc3c2CN(c2cc(Cl)nc4[nH]ccc24)[C@H](C)C3)CC1"
Reply: 6.32

====

Test system: ATR-driven phosphorylation of Chk1 kinase at Serine 345 in HT-29 colorectal adenocarcinoma cells
Test: pCHK1 cellular assay (CHK1 p-Ser345 AlphaScreen SureFire)
Type: cell-based
Conditions: Homo sapiens, HT-29, HT-29 cells, 4-nitroquinoline N-oxide 12 uM; read-out: Cell IC50 (pCHK1 IC50 values)
Listed next: entries and their corresponding pIC50.
On this scale, pIC50 is minus log10 of a concentration expressed in M (mol/L).

MOLECULE: CC1Cc2ncnc(C3CCN(S(C)(=O)=O)CC3)c2CN1c1ccnc2[nH]ccc12 (stereo not shown) [Example 4, bis(trifluoroacetate)]
pIC50: 6.80
--
MOLECULE: C[C@@H]1Cc2ncnc(C3CCN(S(C)(=O)=O)CC3)c2CN1c1cc(Cl)nc2[nH]ccc12 [Example 7, bis(trifluoroacetate)]
pIC50: 7.49

Query: Return reported pIC50; argument: C[C@@H]1Cc2ncnc(C3CCN(S(C)(=O)=O)CC3)c2CN1c1cc(OCC(F)(F)F)nc2[nH]ccc12 [Example 96]
Reply: 7.66

Query: Another: Cc1cc(N2Cc3c(ncnc3C3CCN(S(C)(=O)=O)CC3)C[C@H]2C)c2cc[nH]c2n1 [Example 56]
Reply: 7.28

====

Target: ATR/ATRIP complex (Homo sapiens (Human))
Assay: ATR/ATRIP enzymatic assay (Caliper-based)
Format: biochemical
Conditions: FAM-labeled RAD17 peptide, ATP; read-out: ATR/ATRIP Enzyme IC50
Listed next: entries and their corresponding pIC50.
On this scale, pIC50 is minus log10 of a concentration expressed in M (mol/L).

Query: What pIC50 appears in the records for this compound with ATR/ATRIP complex (Homo sapiens (Human))? "COC(=O)N1CCC(c2ncnc3c2CN(c2cc(Cl)nc4[nH]ccc24)[C@H](C)C3)CC1"
Reply: 6.05

Query: Another: "C[C@@H]1Cc2ncnc(N3CCC[C@@H](C(C)(C)O)C3)c2CN1c1cc(Cl)nc2[nH]ccc12"
Reply: 7.06

Query: Another: "C[C@@H]1Cc2ncnc(C3=C[C@@H]4CC[C@H](C3)N4S(C)(=O)=O)c2CN1c1cc(Cl)nc2[nH]ccc12"
Reply: 7.18

Query: Another: "C[C@@H]1Cc2ncnc(N3CCC4(CC3)CNC(=O)O4)c2CN1c1cc(Cl)nc2[nH]ccc12"
Reply: 6.36

Query: Another: "CNC(=O)C1CCN(c2ncnc3c2CN(c2cc(Cl)nc4[nH]ccc24)[C@H](C)C3)CC1"
Reply: 6.15
